System: HELA cells (Acc57)
Test: Cytotoxicity assay (MTT reduction), HELA cells
Format: cell-based
Details: Hela cells
Where a SMILES comes first, the peptide text is derived from it.
property: Cytotoxicity LC50/GI50 Hela cells
Value and unit, in that order.

Q. Tell me the measured Cytotoxicity LC50/GI50 Hela cells of CCCC[C@@H]1NC(=O)[C@@H]2CCCN2C(=O)[C@H]2CCCN2C(=O)[C@H](Cc2ccc(O)cc2)NC(=O)[C@@H]2CSSC[C@H](NC1=O)C(=O)N[C@@H]([C@@H](C)O)C(=O)N[C@@H](C)C(=O)N[C@@H](CO)C(=O)N[C@@H](CCC(C)C)C(=O)N1CCC[C@H]1C(=O)N1CCC[C@H]1C(=O)N[C@@H](CCC(N)=O)C(=O)N2 [Ex. 83] (HELM PEPTIDE1{[Nle].C.T.A.S.[CC(C)CC[C@H](N[*:1])C(=O)[*:2]].P.P.Q.C.Y.[dP].P}$PEPTIDE1,PEPTIDE1,2:R3-10:R3|PEPTIDE1,PEPTIDE1,1:R1-13:R2$$$V2.0) , please.
A. 12 µM

* * *

Biological target: Trypsin, from human pancreas (Homo sapiens)
Experiment: Enzymatic assay, trypsin
Details: at 100 μM
Where a SMILES comes first, the peptide text is derived from it.
property: Trypsin at 100 μM % (%)
Answers are plain numbers, in %.

{"compound": "CC[C@H](C)[C@@H]1NC(=O)[C@@H]2CCCN2C(=O)[C@@H]2CCCN2C(=O)[C@H](CC(=O)O)NC(=O)[C@H](CO)NC(=O)[C@H](CCCCN)NC(=O)[C@H]([C@@H](C)O)NC(=O)[C@@H]2CSSC[C@H](NC1=O)C(=O)N[C@@H](Cc1ccc(O)cc1)C(=O)N1CCC[C@@H]1C(=O)N1CCC[C@H]1C(=O)N[C@@H](CCc1ccccc1)C(=O)N2 [Ex. 30] (HELM PEPTIDE1{[O=C([C@H](CCc1ccccc1)N[*:1])[*:2]].C.T.K.S.D.P.P.I.C.Y.[dP].P}$PEPTIDE1,PEPTIDE1,2:R3-10:R3|PEPTIDE1,PEPTIDE1,1:R1-13:R2$$$V2.0)", "property": "Trypsin at 100 μM %", "result": 98}

Q. Find the recorded Trypsin at 100 μM % belonging to CCCC[C@@H]1NC(=O)[C@H](CCC(N)=O)NC(=O)[C@H]2CCCN2C(=O)[C@H](Cc2ccc(O)cc2)NC(=O)[C@@H]2CSSC[C@H](NC1=O)C(=O)N[C@@H]([C@@H](C)O)C(=O)N[C@@H](C)C(=O)N[C@@H](CO)C(=O)N[C@@H]([C@@H](C)CC)C(=O)N1CCC[C@H]1C(=O)N1CCC[C@H]1C(=O)N[C@@H](CCC(N)=O)C(=O)N2 [Ex. 123] (HELM PEPTIDE1{[Nle].C.T.A.S.I.P.P.Q.C.Y.[dP].Q}$PEPTIDE1,PEPTIDE1,2:R3-10:R3|PEPTIDE1,PEPTIDE1,1:R1-13:R2$$$V2.0) and report it.
A. 7.9

* * *

Exercise: for every item that follows, state its recorded Thrombin at 100 μM %.
Molecular target: Thrombin, from Human Plasma (Homo sapiens)
Assay: Enzymatic assay, thrombin
Where a SMILES comes first, the peptide text is derived from it.
Numbers only, in %.

A selection of reference data follows.
{"molecule": "CCCC[C@@H]1NC(=O)[C@@H]2CCCN2C(=O)[C@H]2CCCN2C(=O)[C@H](Cc2ccc(O)cc2)NC(=O)[C@@H]2CSSC[C@H](NC1=O)C(=O)N[C@@H]([C@@H](C)O)C(=O)N[C@@H](C)C(=O)N[C@@H](CO)C(=O)N[C@@H](CC(C)(C)C)C(=O)N1CCC[C@H]1C(=O)N1CCC[C@H]1C(=O)N[C@@H](CCC(N)=O)C(=O)N2 [Ex. 85] (HELM PEPTIDE1{[Nle].C.T.A.S.[CC(C)(C)C[C@H](N[*:1])C(=O)[*:2]].P.P.Q.C.Y.[dP].P}$PEPTIDE1,PEPTIDE1,2:R3-10:R3|PEPTIDE1,PEPTIDE1,1:R1-13:R2$$$V2.0)", "Thrombin at 100 μM % (%)": 12.6}
{"molecule": "CCCCCC[C@@H]1NC(=O)[C@@H]2CCCN2C(=O)[C@H]2CCCN2C(=O)[C@H](Cc2ccc(O)cc2)NC(=O)[C@@H]2CSSC[C@H](NC1=O)C(=O)N[C@@H]([C@@H](C)O)C(=O)N[C@@H](C)C(=O)N[C@@H](CO)C(=O)N[C@@H]([C@@H](C)CC)C(=O)N1CCC[C@H]1C(=O)N1CCC[C@H]1C(=O)N[C@@H](CCC(N)=O)C(=O)N2 [Ex. 99] (HELM PEPTIDE1{[CCCCCC[C@H](N[*:1])C(=O)[*:2]].C.T.A.S.I.P.P.Q.C.Y.[dP].P}$PEPTIDE1,PEPTIDE1,2:R3-10:R3|PEPTIDE1,PEPTIDE1,1:R1-13:R2$$$V2.0)", "Thrombin at 100 μM % (%)": 0}
{"molecule": "CC[C@H](C)[C@@H]1NC(=O)[C@@H]2CCCN2C(=O)[C@@H]2CCCN2C(=O)[C@H](CC(=O)O)NC(=O)[C@H](CO)NC(=O)[C@H](CCCCN)NC(=O)[C@H]([C@@H](C)O)NC(=O)[C@H](CCC(=O)O)NC(=O)[C@H](CCCNC(=N)N)NC(=O)[C@@H]2CCCN2C(=O)[C@H]2CCCN2C(=O)[C@H](Cc2ccccc2)NC(=O)[C@H](CCCNC(=N)N)NC1=O [Ex. 7] (HELM PEPTIDE1{R.E.T.K.S.D.P.P.I.R.F.[dP].P}$PEPTIDE1,PEPTIDE1,1:R1-13:R2$$$V2.0)", "Thrombin at 100 μM % (%)": 0}

# ---- query molecule ----
Q. # get_value(readout='Thrombin at 100 μM %', item= C[C@@H]1NC(=O)[C@H]([C@@H](C)O)NC(=O)[C@@H]2CSSC[C@H](NC(=O)[C@H](CCC(N)=O)NC(=O)[C@@H]3CCCN3C(=O)[C@@H]3CCCN3C(=O)[C@H](CC3CCCCC3)NC(=O)[C@H](CO)NC1=O)C(=O)N[C@@H](CCC(N)=O)C(=O)N1CCC[C@@H]1C(=O)N1CCC[C@H]1C(=O)N[C@@H](CCc1ccccc1)C(=O)N2 [Ex. 158] (HELM PEPTIDE1{[O=C([C@H](CCc1ccccc1)N[*:1])[*:2]].C.T.A.S.[Cha].P.P.Q.C.Q.[dP].P}$PEPTIDE1,PEPTIDE1,2:R3-10:R3|PEPTIDE1,PEPTIDE1,1:R1-13:R2$$$V2.0) )
A. 2

* * *

System: HELA cells (Acc57)
Assay: Cytotoxicity assay (MTT reduction), HELA cells
Type: cell-based
Details: Hela cells
Where a SMILES comes first, the peptide text is derived from it.
property: Cytotoxicity LC50/GI50 Hela cells (µM)
Give bare numbers, in µM.

Q. Requested field: Cytotoxicity LC50/GI50 Hela cells. Item: CCCC[C@@H]1NC(=O)[C@H]([C@@H](C)O)NC(=O)[C@@H]2CSSC[C@H](NC(=O)[C@H]([C@@H](C)CC)NC(=O)[C@@H]3CCCN3C(=O)[C@@H]3CCCN3C(=O)[C@H](CC(=O)O)NC(=O)[C@H](CO)NC1=O)C(=O)N[C@@H](CCCNC(=N)N)C(=O)N1CCC[C@@H]1C(=O)N1CCC[C@H]1C(=O)N[C@@H]([C@@H](C)CC)C(=O)N2 [Ex. 22] (HELM PEPTIDE1{I.C.T.[Nle].S.D.P.P.I.C.R.[dP].P}$PEPTIDE1,PEPTIDE1,2:R3-10:R3|PEPTIDE1,PEPTIDE1,1:R1-13:R2$$$V2.0)
A. 8

* * *

Target: Chymotrypsin, from human pancreas (Homo sapiens, UniProt P17538)
Sequence (P17538 19-263): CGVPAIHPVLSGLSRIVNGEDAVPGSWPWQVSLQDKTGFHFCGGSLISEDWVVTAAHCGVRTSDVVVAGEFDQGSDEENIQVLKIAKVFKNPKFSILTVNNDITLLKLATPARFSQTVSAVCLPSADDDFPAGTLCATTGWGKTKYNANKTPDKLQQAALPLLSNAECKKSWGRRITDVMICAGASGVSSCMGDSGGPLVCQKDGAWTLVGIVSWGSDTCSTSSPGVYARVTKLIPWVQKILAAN
Assay: Enzymatic assay, chymotrypsin
Conditions: at 100 μM
Where a SMILES comes first, the peptide text is derived from it.
Please respond with reported Chymotrypsin at 100 μM % for every item in the list.
Numbers only, in %.

{"compound": "CCCC[C@@H]1NC(=O)[C@@H]2CCCN2C(=O)[C@@H]2CCCN2C(=O)[C@H](CC(=O)O)NC(=O)[C@H](CO)NC(=O)[C@H](CCCCN)NC(=O)[C@H]([C@@H](C)O)NC(=O)[C@@H]2CSSC[C@H](NC1=O)C(=O)N[C@@H](Cc1ccc(O)cc1)C(=O)N1CCC[C@@H]1C(=O)N1CCC[C@H]1C(=O)N[C@@H](C1CCCCC1)C(=O)N2 [Ex. 63] (HELM PEPTIDE1{[O=C([C@@H](N[*:1])C1CCCCC1)[*:2]].C.T.K.S.D.P.P.[Nle].C.Y.[dP].P}$PEPTIDE1,PEPTIDE1,2:R3-10:R3|PEPTIDE1,PEPTIDE1,1:R1-13:R2$$$V2.0)", "test_system": "Chymotrypsin, from human pancreas (Homo sapiens, UniProt P17538)", "Chymotrypsin at 100 μM % / %": 11}

Q. Form field: reported Chymotrypsin at 100 μM % of CCCC[C@@H]1NC(=O)[C@@H]2CCCN2C(=O)[C@H]2CCCN2C(=O)[C@H](Cc2ccccc2Cl)NC(=O)[C@@H]2CSSC[C@H](NC1=O)C(=O)N[C@@H]([C@@H](C)O)C(=O)N[C@@H](C)C(=O)N[C@@H](CO)C(=O)N[C@@H]([C@@H](C)CC)C(=O)N1CCC[C@H]1C(=O)N1CCC[C@H]1C(=O)N[C@@H](CCC(N)=O)C(=O)N2 [Ex. 144] (HELM PEPTIDE1{[Nle].C.T.A.S.I.P.P.Q.C.[O=C([C@H](Cc1ccccc1Cl)N[*:1])[*:2]].[dP].P}$PEPTIDE1,PEPTIDE1,2:R3-10:R3|PEPTIDE1,PEPTIDE1,1:R1-13:R2$$$V2.0)
A. 80.6
